Target: HSD17B13 (Homo sapiens (Human))
Sequence (Q7Z5P4 other isoform, or with tags, fused parts or gaps): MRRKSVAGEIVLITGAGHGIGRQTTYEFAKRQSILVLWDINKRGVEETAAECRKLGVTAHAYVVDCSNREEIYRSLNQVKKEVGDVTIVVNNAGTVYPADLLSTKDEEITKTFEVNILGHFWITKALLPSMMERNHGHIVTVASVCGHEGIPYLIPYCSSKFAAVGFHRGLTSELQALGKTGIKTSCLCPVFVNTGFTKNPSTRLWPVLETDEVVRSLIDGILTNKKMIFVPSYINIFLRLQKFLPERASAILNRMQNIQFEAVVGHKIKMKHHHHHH
Assay: HSD17B13 enzymatic inhibition assay (150 nM or 50 nM HSD17B13)
Assay type: biochemical
Conditions: 50 nM HSD17B13; read-out: Inhibition of 50 nM of HSD17B13 IC50
PROPERTY LABEL: IC50 (nM)

{"columns": ["MOLECULE", "PROPERTY LABEL", "RESULT"],
 "data": [
  ["O=C(NC(c1ccccc1)c1ccc(CC(F)(F)F)cc1)c1ccc(C(F)(F)F)[nH]c1=O (stereo not shown)", "IC50", 390],
  ["Cc1cc(C(=O)NC2c3ccc(Cl)cc3Oc3cc(Cl)ccc32)c(=O)[nH]c1C(F)(F)F", "IC50", 110],
  ["COc1ccc(-c2nc(SCc3cccc(C(F)(F)F)c3)[nH]c(=O)c2C#N)cc1", "IC50", 4760],
  ["CCCC1CCc2cc(OC)ccc2C1NC(=O)c1ccc(C(F)(F)F)[nH]c1=O (stereo not shown)", "IC50", 80],
  ["C=Cc1cc(C(=O)NC2c3ccc(C)cc3Oc3cc(C)ccc32)c(=O)[nH]c1C(F)(F)F", "IC50", 20],
  ["Cc1cc2c(cn1)C(NC(=O)c1ccc(C(F)(F)F)[nH]c1=O)c1ccccc1O2 (stereo not shown)", "IC50", 180],
  ["Cc1ccc(C(NC(=O)c2cnc(C(F)(F)F)[nH]c2=O)c2ccc(C)cc2)cc1 [Compound 13A]", "IC50", 1310],
  ["Cc1ccc2c(c1)Oc1cccc(C)c1C2NC(=O)c1cc(C2=CCCCC2)c(C(F)(F)F)[nH]c1=O (stereo not shown)", "IC50", 770]
]}

[a] CCC[C@H]1Oc2cc(C)ccc2[C@H]1NC(=O)c1ccc(C(F)(F)F)[nH]c1=O
[b] Cc1ccc2c(c1)S(=O)(=O)c1cc(C)ccc1C2NC(=O)c1cc(Br)c(C(F)(F)F)[nH]c1=O
[c] CCCC1=C(NC(=O)c2ccc(C(F)(F)F)[nH]c2=O)c2ccc(C)cc2C1=O
Prompt line: Could you please order the items by IC50, going from the lowest number to the highest? Give your ranking as a list of the labels in the requested order.
Response line: b, a, c

Data credit: patent US11957687B2
